Test: chemical genetic growth profiling, strain panel (AID 1159580);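 note: tested at 20 µM; growth read once vehicle control cultures reached saturation at 30 °C; 1 = growth at the plate median or of vehicle wells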
Conditions: S. cerevisiae deletion strains, growth OD, locus YMR231W, strain pep5, stronger effect = lower value
Among all 5,500 compounds or so, about 2,000 (36%) were called active. Not shown: some 18% with an inconclusive outcome. Some of the results follow.
Catalogue of molecules with associated normalized growth

molecule	result
O=S(=O)(O)O	0.956 (inactive)

Which normalized growth is reported for this molecule? CCC(=O)OCC(=O)C1(OC(=O)CC)C(C)CC2C3CCC4=CC(=O)C=CC4(C)C3(Cl)C(O)CC21C (stereo unspecified)
0.971 (inactive)

Which normalized growth is reported for this molecule? CCC(=O)OCC(=O)C1(OC(=O)CC)C(C)CC2C3C(Cl)CC4=CC(=O)C=CC4(C)C3C(O)CC21C (stereo unspecified)
1.03 (inactive)

Which normalized growth is reported for this molecule? CCC(=O)OCC(=O)[C@@]1(OC(=O)CC)[C@@H](C)CC2C3CCC4=CC(=O)C=C[C@]4(C)C3(F)[C@@H](O)C[C@@]21C (stereo partly specified)
1.02 (inactive)

---

Assay: chemical genetic growth profiling, strain panel (AID 1159580);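 note: tested at 20 µM; growth read once vehicle control cultures reached saturation at 30 °C; 1 = growth at the plate median or of vehicle wells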
Details: S. cerevisiae deletion strains, growth OD, locus YOR061W, strain CKA2
Screen size: about 5,500 compounds; about 2,000 (36%) were called active. Not shown: some 18% with an inconclusive outcome. No stated cut-off is given here; in the data, active means normalized growth mostly below about 0.91 (no sharp cut-off); inconclusive means no clear call, values can overlap the other calls; inactive means mostly above about 0.92. This is one part of the list.
The categories you may choose from are active, inactive

For orientation, consider the following solved cases.
smiles.text	qualitative.label
O=C(NC(=S)NNc1ncc(C(F)(F)F)cc1Cl)c1cccs1	active
N#Cc1nccnc1N1CCN(C(=O)Nc2cc(Cl)cc(Cl)c2)CC1	inactive

Hi team, can someone confirm the assay call for CC(=O)Oc1ccccc1C(=O)Oc1ccccc1C(=O)O ?
inactive

Hi team, can someone confirm the assay call for C[N+]1(C)C[C@H](O)[C@H](C(=O)[O-])C1 ?
inactive

Hi team, can someone confirm the assay call for CNC[C@H](O)c1cccc(O)c1 ?
inactive

Hi team, can someone confirm the assay call for CN(C)CC[C@H](c1ccc(Cl)cc1)c1ccccn1 ?
inactive

---

Experiment: chemical genetic growth profiling, strain panel (AID 1159580);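 note: tested at 20 µM; growth read once vehicle control cultures reached saturation at 30 °C; 1 = growth at the plate median or of vehicle wells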
Settings: S. cerevisiae deletion strains, growth OD, locus YJL166W, strain qcr8, stronger effect = lower value
In all, about 5,500 compounds went through this assay and about 2,000 (36%) were called active. About 18% were inconclusive and are not listed. This is one part of the list.
The threshold is 1. Values of normalized growth beneath it are tagged criterion met; values meeting or exceeding it are tagged criterion not met.

For orientation, consider the following solved cases.
compound	qualitative.label
OC1(c2ccc(Cl)c(C(F)(F)F)c2)CCN(CCCC(c2ccc(F)cc2)c2ccc(F)cc2)CC1	criterion met
CC(=O)N1CCN(c2ccc(OCC3CO[C@](Cn4ccnc4)(c4ccc(Cl)cc4Cl)O3)cc2)CC1 (some centres not stated)	criterion met
CC1(C)[C@@H]2CC[C@@]1(C)C(=O)C2	criterion not met
COc1c(O)cc2c(c1O)[C@H]1O[C@H](CO)[C@@H](O)[C@H](O)[C@@H]1OC2=O	criterion not met
CCc1ccc2c(O)c3c(cc2c1C(=O)OC)C(=O)c1c(O)ccc(O)c1C3=O	criterion met

Below 1 on normalized growth? Entry O=C(/C=C(\O)c1ccccc1)c1ccccc1O
criterion met

---

Assay: chemical genetic growth profiling, strain panel (AID 1159580);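 note: tested at 20 µM; growth read once vehicle control cultures reached saturation at 30 °C; 1 = growth at the plate median or of vehicle wells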
Details: S. cerevisiae deletion strains, growth OD, locus YOL006C, strain TOP1, stronger effect = lower value
Screen size: about 5,500 compounds; about 2,000 (36%) were called active. Roughly 18% stayed inconclusive and do not appear here. This is one part of the list.
The threshold is 1. Values of normalized growth beneath it are tagged criterion met; values meeting or exceeding it are tagged criterion not met.

For orientation, consider the following solved cases.
compound	qualitative.label
CC(C)(C)C1=CC(=O)C=C(C(C)(C)C)C1=O	criterion not met
C[C@H]1O[C@@H](O[C@H]2[C@@H](O)C[C@H](O[C@H]3[C@@H](O)C[C@H](O[C@H]4CC[C@]5(C)C6CC[C@]7(C)[C@@H](C8=CC(=O)OC8)CC[C@]7(O)C6CC[C@@H]5C4)O[C@@H]3C)O[C@@H]2C)C[C@H](O)[C@@H]1O (some centres undefined)	criterion met
COc1cc(C(=O)O)cc(OC)c1OC	criterion not met
CNC[C@H](O)c1cccc(O)c1	criterion not met
COc1ccccc1N1CCN(C(=O)Nc2cc(Cl)cc(Cl)c2)CC1	criterion met
C[C@]12CC[C@H](O)C[C@H]1CCC1C2CC[C@]2(C)[C@@H](C3=CC(=O)OC3)[C@@H](O)C[C@]12O (some centres undefined)	criterion not met
C/C=C/CC(C)C(O)C1C(=O)NC(CC)C(=O)N(C)CC(=O)N(C)C(CC(C)C)C(=O)NC(C(C)C)C(=O)N(C)C(CC(C)C)C(=O)NC(C)C(=O)NC(C)C(=O)N(C)C(CC(C)C)C(=O)N(C)C(CC(C)C)C(=O)N(C)C(C(C)C)C(=O)N1C (centres undefined)	criterion met
CCc1ccc2c(O)c3c(cc2c1C(=O)OC)C(=O)c1c(O)ccc(O)c1C3=O	criterion not met
Cn1c(SCC(=O)N2CCOCC2)nnc1-c1ccc2ncccc2c1	criterion not met
O=C(O)C1CC(=O)N(Cc2ccccc2Cl)C1 (centres undefined)	criterion not met

Now for another entry.
Below 1 on normalized growth? Entry CC(=O)O[C@@H]1CC2C(C)(C)CCC[C@]2(C)C2CC[C@]3(C)C(=CC(=O)O[C@H]3c3ccoc3)[C@@]21C (some centres undefined)
criterion not met
